Items are presented alongside their recorded Population Mitotic Cells (%).
- System: HEK-293T
- Assay overview: Multiplex assay against HEK293T
- Format: toxicity, cell-based
- Condition context: human, 12 h, 10 µM, compound concentration 10 uM, replicate 1

| Compound | Unit tag | Population Mitotic Cells (%) |
| --- | --- | --- |
| Cc1cc(-c2ccc3c(c2)CC[C@H]3N2CC3(CCN(C(=O)Cc4cn5cc(C)sc5n4)CC3)C2)ncn1 [PF-5190457] | % | 60 |
| COc1ccc2[nH]c(I)c(CCNC(C)=O)c2c1 [IODOMELATONIN] | % | 61 |
| C[C@H](NC(=O)CNC(=O)c1cccc(Cl)c1)c1ccccc1 | % | 58 |
| COc1c(Nc2ccc(S(C)(=O)=O)nc2C)ncnc1OC1CCN(C(=O)OC(C)C)CC1 [ADP-597] | % | 52 |
| COc1cc(OC2CCN(C(C)=O)CC2)ccc1C(=O)N1CCC(N2C(=O)OCc3ccccc32)CC1 | % | 60 |

* * *

- Tested on: Fibroblast
- Assay overview: Multiplex assay against human fibroblast
- Assay type: toxicity, cell-based
- Condition context: 12 h, 1 µM, compound concentration 1 uM, replicate 2
Non-standard residues stand in square brackets, D forms with d. Residues, ends and D or L forms follow the SMILES beside them.
Items are presented alongside their recorded Population Hoechst High Intensity Objects (%).
Quantity name: Population Hoechst High Intensity Objects (%)

| Compound | Unit tag | Reported measurement |
| --- | --- | --- |
| CSc1nc(NC2CCCC2)c([N+](=O)[O-])c(NC2CCCC2)n1 [GS-39783] | % | 5 |
| COCCCN1CCC(NC(=O)c2cc(Cl)c(N)c3c2OCC3)CC1 [PRUCALOPRIDE] | % | 4 |
| CC(C)C[C@@H]1NC(=O)[C@@H](C(C)C)NC(=O)[C@@H]2CCCN2C(=O)[C@@H](CC(=O)O)NC(=O)[C@@H](Cc2c[nH]c3ccccc23)NC1=O [BQ-123] (cyclo(L[dW][dD]P[dV])) | % | 3 |
| COC(c1ccccc1)(c1ccccc1)[C@H](Oc1nc(C)cc(C)n1)C(=O)O [AMBRISENTAN] | % | 4 |

* * *

- Tested on: U2OS
- Assay overview: Multiplex assay against U2OS
- Type: toxicity, cell-based
- Condition context: human, 12 h, 10 µM, compound concentration 10 uM, replicate 1

| Compound | Population Apoptotic (%) |
| --- | --- |
| Cc1cc(O)c(-c2ccc([C@@H](C)CN(C)C)cc2)c2c1[nH]c(=O)c1sccc12 | 64 |
| COCCCN1CCC(NC(=O)c2cc(Cl)c(N)c3c2OCC3)CC1 [PRUCALOPRIDE] | 68 |
| CN(C)C/C=C/C(=O)Nc1ccc(C(=O)N2CCCC(Nc3ncc(Cl)c(-c4c[nH]c5ccccc45)n3)C2)cc1 (centres undefined) | 80 |
| CCC(=O)OCC(=O)[C@@]1(OC(=O)CC)[C@@H](C)C[C@H]2[C@@H]3CCC4=CC(=O)C=C[C@]4(C)[C@@]3(Cl)[C@@H](O)C[C@@]21C [BECLOMETHASONE DIPROPIONATE] | 65 |
| C=CCN1C[C@H](C(=O)N(CCCN(C)C)C(=O)NCC)C[C@@H]2c3cccc4[nH]cc(c34)C[C@H]21 | 69 |
| O=c1nc2[nH]c3ccccc3nc-2c(=O)[nH]1 | 86 |
| O=c1ccc2ccc(OCCCCN3CCN(c4cccc5sccc45)CC3)cc2[nH]1 | 86 |
| OCCCNc1cc(-c2ccnc(Nc3cccc(Cl)c3)n2)ccn1 | 85 |
| CCc1nn2c(C)cc(C)nc2c1Cc1ccc(-c2nnc(C3CCNCC3)o2)cc1 | 68 |
| COc1cc2nc(N3CCN(C(=O)COc4c(OC)cccc4C(C)C)CC3)nc(N)c2cc1OC.Cl.Cl | 55 |
| CN(C)C(=O)Cn1cc(-c2ccc(-c3nnc4ccccn34)cc2)cn1 | 95 |
| Cc1cc(=O)n(C)c2cc(N3C(=O)CC[C@H](NS(=O)(=O)CC(C)C)[C@H]3c3ccc(Cl)cc3)ccc12 | 57 |
| Cl.Cl.OCCOCCN1CCN(C(c2ccccc2)c2ccc(Cl)cc2)CC1 (centres undefined) [HYDROXYZINE HYDROCHLORIDE] | 58 |
| Cc1cc(NC(=O)NCCN2CCC(O)(Cc3ccccc3)CC2)c2ccccc2n1 | 72 |
| CN1CCC(C(=O)c2cccc(NC(=O)c3c(F)cc(F)cc3F)n2)CC1 | 65 |
| COc1c(Nc2ccc(S(C)(=O)=O)nc2C)ncnc1OC1CCN(C(=O)OC(C)C)CC1 | 93 |
| CC(C)(O)C(=O)N1CCN(c2ccc(C(F)(F)F)c(C3=C(c4c[nH]c5ccccc45)C(=O)NC3=O)c2)CC1 | 76 |
| CC(C)(C)c1ccc(CSc2cnn(C(C)(C)C)c(=O)c2Cl)cc1 | 83 |
| O=C(Nc1cc(-c2ccccc2)nn1-c1ccccc1F)c1ccc([N+](=O)[O-])cc1 | 66 |
| C[C@@H]1CC(=O)Nc2cccc(-c3ccc4c(c3)c(-c3cnn(C)c3)nn4C)c2N1 | 86 |
| Nc1nc(CC(=O)Nc2ccc(CCNC[C@H](O)c3ccccc3)cc2)cs1 | 86 |
| COc1ccc2[nH]c(I)c(CCNC(C)=O)c2c1 | 77 |
| O=C(NCCNCC(O)COc1ccc(O)cc1)N1CCOCC1.O=C(NCCNCC(O)COc1ccc(O)cc1)N1CCOCC1.O=C(O)/C=C/C(=O)O (centres undefined) [XAMOTEROL FUMARATE] | 92 |
| CN1CCN2c3ccccc3Cc3ccccc3C2C1.Cl (centres undefined) [MIANSERIN HYDROCHLORIDE] | 78 |
| CCn1c(-c2nc3cc(C(=O)N4CCCC(N)C4)ccc3n2C)cc2ccccc21.Cl (centres undefined) | 48 |
| CN1C[C@H](C(=O)N[C@]2(C)O[C@@]3(O)[C@@H]4CCCN4C(=O)[C@H](Cc4ccccc4)N3C2=O)C[C@@H]2c3cccc4[nH]cc(c34)C[C@H]21.CS(=O)(=O)O [DIHYDROERGOTAMINE MESYLATE] | 71 |
| COC(c1ccccc1)(c1ccccc1)[C@H](Oc1nc(C)cc(C)n1)C(=O)O | 61 |
| N[C@](CC1c2ccccc2Oc2ccccc21)(C(=O)O)[C@H]1C[C@@H]1C(=O)O | 84 |
| COc1cc(OC2CCN(C(C)=O)CC2)ccc1C(=O)N1CCC(N2C(=O)OCc3ccccc32)CC1 | 72 |
| Cc1ccc(OCC(O)C(C)NC(C)C)c2c1CCC2.Cl (centres undefined) | 61 |
| COc1cc(Nc2ncc3c(n2)-c2ccc(Cl)cc2C(c2c(F)cccc2OC)=NC3)ccc1C(=O)O | 79 |
| COCCn1c(C)c(C)s/c1=N\C(=O)C1C(C)(C)C1(C)C | 73 |
| COc1cc2nc(N3CCN(C(=O)c4ccco4)CC3)nc(N)c2cc1OC.Cl [PRAZOSIN HYDROCHLORIDE] | 86 |
| C[C@H](NC(=O)CNC(=O)c1cccc(Cl)c1)c1ccccc1 | 68 |

* * *

Items are presented alongside their recorded Population Apoptotic (%).
- Test system: U2OS
- Assay overview: Multiplex assay against U2OS
- Assay type: toxicity, cell-based
- Condition context: human, 12 h, 10 µM, compound concentration 10 uM, replicate 2
Quantity name: Population Apoptotic (%)

| Compound | Quantity name | Reported measurement |
| --- | --- | --- |
| CN1CCN2c3ccccc3Cc3ccccc3C2C1.Cl (stereo not drawn) [MIANSERIN HYDROCHLORIDE] | Population Apoptotic (%) | 86 |
| O=C(Nc1cc(-c2ccccc2)nn1-c1ccccc1F)c1ccc([N+](=O)[O-])cc1 | Population Apoptotic (%) | 94 |
| COc1cc(OC2CCN(C(C)=O)CC2)ccc1C(=O)N1CCC(N2C(=O)OCc3ccccc32)CC1 | Population Apoptotic (%) | 87 |
| C=CCN1C[C@H](C(=O)N(CCCN(C)C)C(=O)NCC)C[C@@H]2c3cccc4[nH]cc(c34)C[C@H]21 [CABERGOLINE] | Population Apoptotic (%) | 64 |
| Cc1nn(C)c2nc(NNC(=O)Nc3cc(Cl)nc(Cl)c3)cc(C(C)C)c12 | Population Apoptotic (%) | 47 |
| CC(C)C[C@H](CO)Nc1nc(S[C@@H](C)c2ccccc2)nc2nc(N)sc12 [AZD-8797] | Population Apoptotic (%) | 78 |
| CCn1c(-c2nc3cc(C(=O)N4CCCC(N)C4)ccc3n2C)cc2ccccc21.Cl (stereo not drawn) | Population Apoptotic (%) | 54 |
| COc1cc(C(=O)N2CC[C@@H](O)[C@@H](N)C2)cc2nc(-c3cc4ccccc4n3CC3CC3)n(C)c12.Cl | Population Apoptotic (%) | 56 |
